Target: CELA2A
Experiment: pooled miR-30 sensor sort-seq; sequence = guide strand
Conditions: shRNA
# Lookup of reported sensor-assay potency score (higher = more potent) keyed by entry
Answer with a bare number; do not write a unit.

Some solved cases for reference:
[[record]]
sequence_entry = "TACCACTTGCCATTGGAGCTGT"
measurement = 0.0148

[[record]]
sequence_entry = "TGTGGTAGTAGTTGCAGCCGAG"
measurement = -0.0375

[[record]]
sequence_entry = "TTATATTATTTTCCTTCTGTGA"
measurement = -1.25

[[record]]
sequence_entry = "AATCTTAGAGACACTGACTGCC"
measurement = 0.508

[[record]]
sequence_entry = "ATACTGGTTTTCACGCTGCTGC"
measurement = -1.06


Per the records, this sequence ( "ATGTAATTGGAGACCCGCGTGA" ) has sensor-assay potency score (higher = more potent) equal to -0.77
